# MEASURED_ON: Muscarinic acetylcholine receptor M3 (Homo sapiens, UniProt P20309)
# Sequence (P20309 whole entry): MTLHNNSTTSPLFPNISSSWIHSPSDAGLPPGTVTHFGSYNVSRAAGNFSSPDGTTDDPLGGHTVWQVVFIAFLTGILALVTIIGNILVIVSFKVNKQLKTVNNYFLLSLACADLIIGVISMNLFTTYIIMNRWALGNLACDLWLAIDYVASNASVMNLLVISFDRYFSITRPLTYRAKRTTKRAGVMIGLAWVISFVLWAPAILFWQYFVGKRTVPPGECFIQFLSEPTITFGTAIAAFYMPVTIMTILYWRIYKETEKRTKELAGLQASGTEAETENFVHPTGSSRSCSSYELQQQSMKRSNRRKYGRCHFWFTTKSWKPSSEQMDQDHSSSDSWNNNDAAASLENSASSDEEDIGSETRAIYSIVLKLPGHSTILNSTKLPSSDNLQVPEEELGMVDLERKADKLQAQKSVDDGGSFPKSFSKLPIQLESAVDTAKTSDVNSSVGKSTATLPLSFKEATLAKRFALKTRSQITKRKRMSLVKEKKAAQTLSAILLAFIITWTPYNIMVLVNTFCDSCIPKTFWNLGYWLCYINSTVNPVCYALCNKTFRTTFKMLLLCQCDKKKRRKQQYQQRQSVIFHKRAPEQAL
Reported pKi is given for each of the following compounds.
Friendly reminder that pKi comes from taking -log10 of the concentration in mol/L.

Solved cases (3 shown):
- COMPOUND: "NCCCN1CCC(OC(=O)Nc2ccccc2-c2ccccc2)CC1"
  TEST_READOUT: "pKi"
  VALUE: 7.17
- COMPOUND: "O=C(Nc1ccccc1-c1ccccc1)OC1CCN(CCCCCCCCCNC[C@H](O)c2ccc(O)c(CO)c2)CC1"
  TEST_READOUT: "pKi"
  VALUE: 9.85
- COMPOUND: "O=C(Nc1ccccc1-c1ccccc1)O[C@H]1C[N+]2(CCCCCCCCCNCC(O)c3ccc(O)c4[nH]c(=O)ccc34)CCC1CC2 (some centres undefined)"
  TEST_READOUT: "pKi"
  VALUE: 6.85

Now for the compound whose pKi we want.
Return reported pKi for target or system Muscarinic acetylcholine receptor M3 (Homo sapiens, UniProt P20309), item NC(=O)C(c1ccccc1)(c1ccccc1)[C@@H]1CCN(CCCCCCCCCNCC(O)c2ccc(O)c3[nH]c(=O)ccc23)C1 (some centres undefined) .
7.49

###

Data export: Ki values recorded with Beta-2 adrenergic receptor (Homo sapiens, UniProt P07550).
Sequence (P07550 whole entry): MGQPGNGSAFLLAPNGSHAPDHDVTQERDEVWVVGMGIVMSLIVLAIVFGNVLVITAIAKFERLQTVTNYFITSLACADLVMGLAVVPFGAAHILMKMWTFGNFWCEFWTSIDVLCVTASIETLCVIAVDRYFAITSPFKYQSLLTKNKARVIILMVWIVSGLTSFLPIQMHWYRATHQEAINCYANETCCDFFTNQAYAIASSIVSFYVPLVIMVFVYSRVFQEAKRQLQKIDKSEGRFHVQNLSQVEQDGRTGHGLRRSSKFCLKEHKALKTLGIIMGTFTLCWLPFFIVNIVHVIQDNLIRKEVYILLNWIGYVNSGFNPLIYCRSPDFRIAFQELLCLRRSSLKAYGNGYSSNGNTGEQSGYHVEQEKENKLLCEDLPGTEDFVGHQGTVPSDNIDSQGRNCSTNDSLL
Quick reminder: number only, in µM, skip the unit.

Worked examples follow.
- MOLECULE: "O=C(Nc1ccccc1-c1ccccc1)O[C@H]1C[N+]2(CCCCCCCCCNCC(O)c3ccc(O)c4[nH]c(=O)ccc34)CCC1CC2 (stereo not given in full)"
  Ki, µM: 0.123
- MOLECULE: "O=C(Nc1ccccc1-c1ccccc1)OC1CCN(CCCCCCCNC[C@H](O)c2ccc(O)c3[nH]c(=O)ccc23)CC1"
  Ki, µM: 0.01
- MOLECULE: "C[N+]1(CCCCCCCCCNC[C@H](O)c2ccc(O)c3[nH]c(=O)ccc23)[C@@H]2C[C@H](OC(=O)C(O)(c3cccs3)c3cccs3)C[C@@H]1[C@H]1O[C@H]12 (stereo not given in full)"
  Ki, µM: 0.036

# return Ki for O=C(Nc1ccccc1-c1ccccc1)OC1CCN(CCCCCCCCNC[C@H](O)c2ccc(O)c3[nH]c(=O)ccc23)CC1 , test system: Beta-2 adrenergic receptor (Homo sapiens, UniProt P07550)
0.0034

Tell me Ki of O=CNc1cc([C@@H](O)CNCCCCCCCCCN2CCC(OC(=O)Nc3ccccc3-c3ccccc3)CC2)ccc1O when tested on Beta-2 adrenergic receptor (Homo sapiens, UniProt P07550).
0.021

###

# MEASURED_ON: UniProtKB P07550
# ASSAY_NAME: Agonist activity at human beta2-adrenoceptor expressed in HEK cells assessed as increase of cAMP level after 10 mins by radioimmunoassay
// pEC50 lookup, one value per entry
Keep in mind that pEC50 stands for -log10 of concentration in molar terms.

Recorded pEC50, per entry:
- COMPOUND: "O=C(Nc1ccccc1-c1ccccc1)OC1CCN(CCCCCCCCNC[C@H](O)c2ccc(O)c3[nH]c(=O)ccc23)CC1"
  VALUE: 9.49
- COMPOUND: "NC(=O)C(c1ccccc1)(c1ccccc1)[C@@H]1CCN(CCCCCCCCCNCC(O)c2ccc(O)c3[nH]c(=O)ccc23)C1 (stereo not given in full)"
  VALUE: 8.48
- COMPOUND: "C[N+]1(CCCCCCCCCNC[C@H](O)c2ccc(O)c3[nH]c(=O)ccc23)[C@@H]2C[C@H](OC(=O)C(O)(c3cccs3)c3cccs3)C[C@@H]1[C@H]1O[C@H]12 (stereo not given in full)"
  VALUE: 9.05
- COMPOUND: "O=C(Nc1ccccc1-c1ccccc1)OC1CCN(CCCCCCCCCNC[C@H](O)c2ccc(O)c(CO)c2)CC1"
  VALUE: 7.85

Next compound, pEC50 to be filled in.
Specify measured pEC50 for O=C(Nc1ccccc1-c1ccccc1)OC1CCN(CCCNC[C@H](O)c2ccc(O)c3[nH]c(=O)ccc23)CC1 .
8.89
